targetEntity: PDE1A (Homo sapiens, UniProt P54750)
Sequence (P54750 whole entry): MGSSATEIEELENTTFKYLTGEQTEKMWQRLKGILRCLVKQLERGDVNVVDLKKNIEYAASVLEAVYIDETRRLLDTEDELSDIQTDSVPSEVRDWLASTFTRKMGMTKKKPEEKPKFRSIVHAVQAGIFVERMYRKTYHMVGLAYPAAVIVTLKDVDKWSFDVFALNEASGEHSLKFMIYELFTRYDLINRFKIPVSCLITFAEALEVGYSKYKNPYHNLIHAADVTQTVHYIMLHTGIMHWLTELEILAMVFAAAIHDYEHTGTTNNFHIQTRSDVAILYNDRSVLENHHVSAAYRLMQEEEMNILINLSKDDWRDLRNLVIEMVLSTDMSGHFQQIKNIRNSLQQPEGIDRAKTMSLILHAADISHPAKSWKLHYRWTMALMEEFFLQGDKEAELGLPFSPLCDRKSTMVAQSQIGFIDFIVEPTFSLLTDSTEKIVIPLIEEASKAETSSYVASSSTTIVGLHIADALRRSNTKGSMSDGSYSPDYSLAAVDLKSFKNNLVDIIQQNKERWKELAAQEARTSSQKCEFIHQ
testProtocol: PDE1 inhibition assay (SPA), PDE1A
Assay type: biochemical
experimentalSetup: concentration required to reach 50% inhibition of the enzyme; 15 nM tritium labelled cAMP; read-out: PDE1A inhibition (nM or %): IC50
propertyMeasured: IC50 (nM)

Example cases with answers are listed next.
compound | measurementUnit | IC50
Cc1ccccc1Cc1cn2c(C3CCOCC3)nnc2c(=O)n1CC1CCCCCC1 | nM | 25
O=c1c2nnc(C3CCCOC3)n2ccn1Cc1cccc(F)c1 (single isomer, unassigned) | nM | 1800
O=c1c2nnc(C3CCOCC3)n2cc(Cc2ccccc2)n1Cc1ccc(F)cc1 | nM | 15
CCCc1nnc2c(=O)n(CC3CCCCCC3)ccn12 | nM | 54
O=c1c2nnc(C3CCOCC3)n2ccn1CC1CCCCC1 | nM | 220

1. CCCc1nnc2c(=O)n(CC3CCCCC3)ccn12
2. O=c1c2nnc(C3CCCC3)n2ccn1Cc1cccc(F)c1
3. CCCc1nnc2c(=O)n(CC34CC5CC(CC(C5)C3)C4)ccn12
4. CCCc1nnc2c(=O)n(Cc3cccc(F)c3)cc(CC)n12
5. CCCc1nnc2c(=O)n(Cc3cccc(Cl)c3)ccn12
Ask: // ascending sort on recorded IC50 Provide the labels, sequenced as the question asks.
Result: 1, 3, 2, 4, 5

Hello, the source for this data is patent US10150771B2, in case you need it.
